# Test Target: MYO3A (human) (UniProt Q8NEV4)
# Sequence (Q8NEV4 whole entry, looked up): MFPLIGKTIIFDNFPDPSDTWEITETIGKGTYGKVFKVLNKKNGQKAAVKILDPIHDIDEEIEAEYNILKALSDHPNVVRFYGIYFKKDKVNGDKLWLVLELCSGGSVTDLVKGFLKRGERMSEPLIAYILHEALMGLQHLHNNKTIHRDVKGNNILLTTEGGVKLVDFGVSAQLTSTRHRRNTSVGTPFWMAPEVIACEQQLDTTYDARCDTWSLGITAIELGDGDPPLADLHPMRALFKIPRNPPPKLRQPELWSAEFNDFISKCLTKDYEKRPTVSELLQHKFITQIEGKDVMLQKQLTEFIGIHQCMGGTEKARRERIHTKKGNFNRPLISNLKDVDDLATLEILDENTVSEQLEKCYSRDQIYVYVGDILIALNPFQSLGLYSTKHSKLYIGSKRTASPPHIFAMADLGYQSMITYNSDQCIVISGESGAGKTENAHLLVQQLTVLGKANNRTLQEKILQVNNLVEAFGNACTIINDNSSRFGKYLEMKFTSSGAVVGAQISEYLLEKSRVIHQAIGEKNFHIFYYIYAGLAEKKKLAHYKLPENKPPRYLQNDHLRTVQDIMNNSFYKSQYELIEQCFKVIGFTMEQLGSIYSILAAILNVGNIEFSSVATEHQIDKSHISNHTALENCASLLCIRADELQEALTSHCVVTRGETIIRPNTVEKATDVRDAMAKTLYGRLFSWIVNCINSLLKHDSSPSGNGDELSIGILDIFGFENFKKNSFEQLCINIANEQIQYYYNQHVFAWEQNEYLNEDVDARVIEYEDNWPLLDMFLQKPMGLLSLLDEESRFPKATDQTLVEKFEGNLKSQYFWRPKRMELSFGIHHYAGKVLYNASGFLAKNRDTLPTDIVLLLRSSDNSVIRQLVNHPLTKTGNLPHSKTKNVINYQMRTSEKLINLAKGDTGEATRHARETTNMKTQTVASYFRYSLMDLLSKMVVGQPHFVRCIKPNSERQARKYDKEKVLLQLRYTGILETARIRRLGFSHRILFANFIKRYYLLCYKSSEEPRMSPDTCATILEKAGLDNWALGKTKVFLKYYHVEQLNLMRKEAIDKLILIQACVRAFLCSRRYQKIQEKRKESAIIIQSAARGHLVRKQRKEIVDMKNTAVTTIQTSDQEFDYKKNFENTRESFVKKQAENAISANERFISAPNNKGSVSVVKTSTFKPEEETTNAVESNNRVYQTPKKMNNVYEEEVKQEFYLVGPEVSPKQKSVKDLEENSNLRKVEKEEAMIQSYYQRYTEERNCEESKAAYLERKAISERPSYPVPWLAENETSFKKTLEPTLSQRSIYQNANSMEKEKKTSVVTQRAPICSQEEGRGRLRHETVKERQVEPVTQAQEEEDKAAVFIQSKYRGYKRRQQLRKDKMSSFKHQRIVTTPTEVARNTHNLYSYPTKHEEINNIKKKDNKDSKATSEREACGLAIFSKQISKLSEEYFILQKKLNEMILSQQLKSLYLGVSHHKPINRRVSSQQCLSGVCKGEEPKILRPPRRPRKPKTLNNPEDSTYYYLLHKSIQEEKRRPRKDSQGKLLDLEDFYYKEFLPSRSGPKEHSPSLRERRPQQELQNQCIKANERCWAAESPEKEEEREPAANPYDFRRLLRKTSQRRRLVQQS
# Assay Explanation: KINOMEscan competition binding
# Condition Description: compound 10.0 µM
With a cut-off of 90%, any kinase still bound, per cent of control strictly below it is called rule met; any kinase still bound, per cent of control meeting it or above is called rule not met.

# check: kinase still bound, per cent of control < 90% for `CCN(CC)CCCCNc1ncc2c(n1)N(C)C(=O)N(c1c(Cl)c(OC)cc(OC)c1Cl)C2` rule not met

Lab note: confirm whether the reported kinase still bound, per cent of control for this compound is below 90%, equality not counting. compound: `O=C(Nc1cccc(Nc2ncc(Br)c(NCCc3cnc[nH]3)n2)c1)N1CCCC1` rule met

Dear colleague, could you confirm whether kinase still bound, per cent of control of `C=CC(=O)Nc1ccc(CN(C(=O)Nc2c(Cl)c(OC)cc(OC)c2Cl)c2cc(Nc3ccc(N4CCN(C)CC4)cc3)ncn2)cc1` falls below 90%? Thanks. rule not met

Criterion: kinase still bound, per cent of control strictly below 90%. Is it met by `COCC(=O)NC/C=C/c1ccc2ncnc(Nc3ccc(Oc4ccc(C)nc4)c(C)c3)c2c1` ? rule met

Dear reviewer, please state whether `COc1cc(N2CCN(C)CC2)ccc1Nc1ncc2c(n1)N(C)c1ccccc1C(=O)N2C` has kinase still bound, per cent of control strictly beneath 90%. rule not met

Lab note: kinase still bound, per cent of control threshold 90%. Does this compound come in strictly under it? `CCN(CC)CCCCNc1ncc2cc(-c3cc(OC)cc(OC)c3)c(NC(=O)NC(C)(C)C)nc2n1` rule not met

Does `CN(C)C/C=C/C(=O)Nc1ccc(C(=O)Nc2cccc(Nc3nccc(-c4cccnc4)n3)c2)cc1` have kinase still bound, per cent of control strictly under 90%? rule met

Field: below-cutoff. Rule: recorded kinase still bound, per cent of control strictly less than 90%. Subject: `NC(=O)Nc1cc(-c2cccc(F)c2)sc1C(=O)N[C@@H]1CCCNC1` rule met

###

# Test Target: RPS6KA4 KD2 (human) (UniProt O75676)
# Sequence (O75676 whole entry, looked up): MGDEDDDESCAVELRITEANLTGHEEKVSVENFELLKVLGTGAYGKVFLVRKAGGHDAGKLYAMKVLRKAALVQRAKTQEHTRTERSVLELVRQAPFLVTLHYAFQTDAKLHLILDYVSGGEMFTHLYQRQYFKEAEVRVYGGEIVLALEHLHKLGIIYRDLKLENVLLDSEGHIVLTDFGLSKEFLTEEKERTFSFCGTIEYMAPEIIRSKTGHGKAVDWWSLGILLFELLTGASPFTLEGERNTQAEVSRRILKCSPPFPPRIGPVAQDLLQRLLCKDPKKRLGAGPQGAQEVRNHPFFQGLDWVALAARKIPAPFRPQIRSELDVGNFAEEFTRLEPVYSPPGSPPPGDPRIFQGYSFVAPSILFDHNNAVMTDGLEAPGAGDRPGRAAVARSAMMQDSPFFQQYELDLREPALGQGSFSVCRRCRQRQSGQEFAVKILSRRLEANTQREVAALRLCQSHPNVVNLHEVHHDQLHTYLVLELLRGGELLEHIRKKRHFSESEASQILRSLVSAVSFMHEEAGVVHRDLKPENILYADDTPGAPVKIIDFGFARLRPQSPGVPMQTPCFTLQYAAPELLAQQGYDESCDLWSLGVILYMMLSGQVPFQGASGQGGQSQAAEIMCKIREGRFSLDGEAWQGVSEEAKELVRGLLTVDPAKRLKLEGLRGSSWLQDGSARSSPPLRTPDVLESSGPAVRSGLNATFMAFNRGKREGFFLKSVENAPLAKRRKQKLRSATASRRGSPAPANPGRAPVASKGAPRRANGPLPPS
# Assay Explanation: KINOMEscan competition binding
# Condition Description: compound 10.0 µM
Readout Kind: kinase still bound, per cent of control (%)
Give just the numeric value; % need not be written.

Recall the reported kinase still bound, per cent of control of `COc1cc2ncnc(-n3nc(-c4ccccn4)nc3N)c2cc1OC` when tested on RPS6KA4 KD2 (human) (UniProt O75676). 0.6

With RPS6KA4 KD2 (human) (UniProt O75676) as the test system, provide measured kinase still bound, per cent of control for this compound: `CCN1CCN(C(=O)Cc2ccc(Nc3ncc(F)c(Nc4ccc(C(=O)Nc5ccccc5Cl)cc4)n3)cc2)CC1` 100

System RPS6KA4 KD2 (human) (UniProt O75676). Read-out kinase still bound, per cent of control. Item `COc1cc2ncn(-c3cc(OCc4ccccc4C(F)(F)F)c(C(N)=O)s3)c2cc1OC` . Report value. 70

// fetch kinase still bound, per cent of control; item: `N#CCNC(=O)c1ccc(-c2ccnc(Nc3ccc(N4CCOCC4)cc3)n2)cc1` ; system: RPS6KA4 KD2 (human) (UniProt O75676) 100

Identify measured kinase still bound, per cent of control obtained with RPS6KA4 KD2 (human) (UniProt O75676) for `O=C(Nc1cccc(Nc2ncc(Br)c(NCCc3cnc[nH]3)n2)c1)N1CCCC1` . 0.95

Give measured kinase still bound, per cent of control for `COc1ccc(N(C(=O)Oc2c(C)cccc2C)c2ccnc(Nc3ccc(N4CCN(C)CC4)cc3)n2)c(OC)c1` (RPS6KA4 KD2 (human) (UniProt O75676)). 100

Quote kinase still bound, per cent of control with test system RPS6KA4 KD2 (human) (UniProt O75676) for `O=c1cc(N2CCOCC2)oc2c(-c3cccc4c3sc3ccccc34)cccc12` 100

Would you please give the reported kinase still bound, per cent of control of `O=C1NC(=O)/C(=C/c2ccc3nccc(-c4ccncc4)c3c2)S1` with RPS6KA4 KD2 (human) (UniProt O75676)? 63

Provide the reported kinase still bound, per cent of control (system: RPS6KA4 KD2 (human) (UniProt O75676)) for `COc1cc(C(=O)N2CCC(N3CCN(C)CC3)CC2)ccc1Nc1ncc2c(n1)N(C)c1ccccc1C(=O)N2C` 46

Would you please give the reported kinase still bound, per cent of control of `NC(=O)Nc1cc(-c2cccc(F)c2)sc1C(=O)N[C@@H]1CCCNC1` with RPS6KA4 KD2 (human) (UniProt O75676)? 0.35

Tell me kinase still bound, per cent of control of `Cc1n[nH]c2ccc(-c3cncc(OC[C@@H](N)Cc4c[nH]c5ccccc45)c3)cc12` when tested on RPS6KA4 KD2 (human) (UniProt O75676). 9.9

Write kinase still bound, per cent of control of `COCC(=O)NC/C=C/c1ccc2ncnc(Nc3ccc(Oc4ccc(C)nc4)c(C)c3)c2c1` ; system used: RPS6KA4 KD2 (human) (UniProt O75676) 100

Report measured kinase still bound, per cent of control on RPS6KA4 KD2 (human) (UniProt O75676); entry: `CNC(=O)c1cc(Oc2ccc(NC(=O)Nc3ccc(Cl)c(C(F)(F)F)c3)cc2)ccn1` 89

Report its kinase still bound, per cent of control with RPS6KA4 KD2 (human) (UniProt O75676) as the test system: `C[C@@H](Oc1cc(-c2cnn(C3CCNCC3)c2)cnc1N)c1c(Cl)ccc(F)c1Cl` 50
